Molecular target: T1, Human CD3eg linker (human)
T1 construct: Single-chain construct; also called recombinant human CD3
T1 chain: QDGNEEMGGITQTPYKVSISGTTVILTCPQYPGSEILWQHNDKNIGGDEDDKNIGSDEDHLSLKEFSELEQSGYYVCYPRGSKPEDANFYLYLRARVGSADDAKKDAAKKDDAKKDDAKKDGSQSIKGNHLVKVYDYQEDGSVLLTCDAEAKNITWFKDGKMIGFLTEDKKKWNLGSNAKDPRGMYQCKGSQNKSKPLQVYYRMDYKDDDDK
Test: SPR; fold vs parent H183/L072
// reported fold change of affinity for each item listed
Please give a number only; it is taken to be in fold.

Recorded results for 2 binders are shown here.
binder	fold change of affinity, fold
H183/L072 VL V51K (antibody, name in Kabat numbering, V domains shown) VH: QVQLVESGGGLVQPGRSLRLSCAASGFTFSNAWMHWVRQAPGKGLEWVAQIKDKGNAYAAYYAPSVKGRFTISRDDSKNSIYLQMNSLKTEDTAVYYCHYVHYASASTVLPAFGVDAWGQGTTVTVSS VL: DIVMTQSPLSLPVTPGEPASISCQASQELVHMNRNTYLHWYQQKPGQAPRLLIYKKSNRFPGVPDRFSGSGSGTDFTLKISRVEAEDVGVYYCAQGTSVPFTFGQGTKLEIK	0.8
H183/L072 VL R54L (antibody, name in Kabat numbering, V domains shown) VH: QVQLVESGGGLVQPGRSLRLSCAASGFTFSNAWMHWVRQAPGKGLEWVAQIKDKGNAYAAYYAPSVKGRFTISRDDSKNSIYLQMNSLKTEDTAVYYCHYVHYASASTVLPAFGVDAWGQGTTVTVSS VL: DIVMTQSPLSLPVTPGEPASISCQASQELVHMNRNTYLHWYQQKPGQAPRLLIYKVSNLFPGVPDRFSGSGSGTDFTLKISRVEAEDVGVYYCAQGTSVPFTFGQGTKLEIK	1.3

Now for another entry.
## Input Look up fold change of affinity: H183/L072 VL S26G (antibody, name in Kabat numbering, V domains shown) VH: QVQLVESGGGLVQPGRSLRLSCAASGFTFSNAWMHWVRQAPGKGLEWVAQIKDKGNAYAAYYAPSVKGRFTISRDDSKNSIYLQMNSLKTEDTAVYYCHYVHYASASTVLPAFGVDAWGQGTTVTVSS VL: DIVMTQSPLSLPVTPGEPASISCQAGQELVHMNRNTYLHWYQQKPGQAPRLLIYKVSNRFPGVPDRFSGSGSGTDFTLKISRVEAEDVGVYYCAQGTSVPFTFGQGTKLEIK
## Output 0.9
